System: Beta-2 adrenergic receptor (Bos taurus, UniProt Q28044) | Read-out: Kd
Sequence (Q28044 whole entry): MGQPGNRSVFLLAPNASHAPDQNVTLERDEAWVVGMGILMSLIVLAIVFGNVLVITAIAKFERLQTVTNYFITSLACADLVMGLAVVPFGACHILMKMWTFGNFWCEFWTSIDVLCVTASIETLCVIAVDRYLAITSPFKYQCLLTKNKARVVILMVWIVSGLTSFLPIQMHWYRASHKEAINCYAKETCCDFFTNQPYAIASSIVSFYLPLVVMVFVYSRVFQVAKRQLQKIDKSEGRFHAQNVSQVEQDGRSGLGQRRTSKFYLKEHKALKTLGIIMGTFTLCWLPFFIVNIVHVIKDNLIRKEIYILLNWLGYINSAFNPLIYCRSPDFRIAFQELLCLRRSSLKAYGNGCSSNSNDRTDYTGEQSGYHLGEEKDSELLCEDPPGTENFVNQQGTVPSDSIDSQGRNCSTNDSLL
Provide only the numeric value, understood in nM.

Previously resolved entries follow.
[
  {
    "compound": "CC(C)NCC(O)c1ccc2ccccc2c1 (configuration not stated) [PRONETALOL]",
    "tested system": "Beta-2 adrenergic receptor (Bos taurus, UniProt Q28044)",
    "units": "nM",
    "Kd": 160
  },
  {
    "compound": "CC(C)NCC(O)c1cc(O)cc(O)c1 (configuration not stated) [METAPROTERENOL]",
    "tested system": "Beta-2 adrenergic receptor (Bos taurus, UniProt Q28044)",
    "units": "nM",
    "Kd": 9120
  }
]

I'm curious: which Kd was measured for CC(C)(C)NCC(O)c1cc(Cl)c(O)c(Cl)c1 (configuration not stated) tested on Beta-2 adrenergic receptor (Bos taurus, UniProt Q28044)?
1950

====

molecular target: Beta-2 adrenergic receptor (Bos taurus, UniProt Q28044)
observation type: log10(Kd) (log10 of the value in nM)
Record value = log10 of Kd given in nM.

As a guide, the following entries are already answered.
[
  {
    "compound": "CC(C)(C)NCC(O)c1ccc(O)c(N)c1 (centres undefined)",
    "assay result": 3.31
  },
  {
    "compound": "CC(C)NCC(O)c1ccc([N+](=O)[O-])cc1 (centres undefined)",
    "assay result": 3.12
  },
  {
    "compound": "CNc1cc(C(O)CNC(C)(C)C)ccc1O (centres undefined)",
    "assay result": 2.72
  }
]

# get_value(readout='log10(Kd)', item= CC(C)NCC(O)c1ccc(O)c(N)c1 (centres undefined) )
3.71

Which log10(Kd) value is on record for CC(C)NCC(O)c1cc(Cl)c(N)c(Cl)c1 (centres undefined) ?
1.76

Fill blank: measured log10(Kd) of the compound CC(C)NCC(O)COc1ccccc1C1CC1 (centres undefined) is ____.
-0.41

Entry under review: CC(C)(C)NCC(O)c1ccccc1Cl (centres undefined) . Reported log10(Kd)?
2.11

Any idea what its log10(Kd) is? The compound is CC(C)(C)NCC(O)c1ccc(O)c(O)c1 (centres undefined)
2.78

What value of log10(Kd) has been reported for the following compound? CC(C)NCC(O)c1ccc(O)cc1 (centres undefined)
3.63
